- System: NCI-H460 lung
- ASSAY DETAILS: NCI tumour cell line growth inhibition, 48 h
METRIC: TGI

Tell me the measured TGI of COc1ccc(C2=CC3CCC2C3)cc1 (configuration not stated) , please.
> 100 µM

Further cases:
Quick check: TGI of COC(=O)/C=C/c1cc(OC)c(OC)c(OC)c1 ?
> 100 µM

# TGI lookup, item CN1CCN(C(=O)OCc2nc3c(N4CCOCC4)nc(Cl)nc3n2C)CC1
3.51 µM

====

- System: UO-31 renal
- ASSAY DETAILS: NCI tumour cell line growth inhibition, 48 h
METRIC: TGI

Param item = CC(C)(C)OC(=O)N1CCc2c(sc3ncnc(N/N=C/c4cccc5ccccc45)c23)C1 ; retrieve measured TGI.
14.9 µM

Name the reported TGI value associated with the compound CC(C)(C)C1C=C(Sc2ccccc2)C(=O)O1 (configuration not stated)
92.1 µM

Query: TGI; subject: COC12C=C(C)C(CC1)CC2C(=O)O (configuration not stated)
> 100 µM

Reported TGI, compound C=C1C(=O)O[C@@]23C1CC[C@@H](C)C2CC[C@@]1(C)OC31 (some centres not stated) : ____
18.5 µM

So what does the record say about TGI for OCc1c[nH]c2ccccc12 ?
50.9 µM

Next:
Item CCC(C(=O)c1ccc(OC)c(OC)c1)N(C(=O)C(F)(F)F)C(C)c1ccccc1 (configuration not stated) has what recorded TGI?
> 100 µM

Bench note: what TGI did COC(=O)CN1CCSC1=NC#N show?
> 100 µM

Quick one: TGI of CCC[CH2][Sn]1([CH2]CCC)[O]Cc2nc(C)ccc2[O]1 ?
26.1 µM

Requested field: TGI. Item: CC(C)(CC(=O)Nc1ccccc1)C(=O)O
> 100 µM

Please give the measured TGI for this compound: CCC[CH2][Sn]([CH2]CCC)([O]C(=O)c1cccnc1SC)[O]C(=O)c1cccnc1SC
2.66 µM

====

- Tested on: A498 renal
- ASSAY DETAILS: NCI tumour cell line growth inhibition, 48 h
Parameter TGI: see the listing below.

Observe how each entry below is paired with its result.
Can you share its TGI? I mean this molecule: CC(C)(C)C1C=C(Sc2ccccc2)C(=O)O1 (stereo not drawn)
> 100 µM

Would you kindly share the measured TGI for O=C(Nc1cccc(O)c1)C(=O)C(C(=O)c1ccccc1F)C1OC(=O)c2ccccc21 (stereo not drawn) ?
> 100 µM

Using the record for NC(N)=Nc1ncccc1[N+](=O)[O-] , report its TGI.
> 100 µM

Fill blank: measured TGI of the molecule CC(C)(C)c1cc(/C=C(\C#N)C(=O)NCCO)cc(C(C)(C)C)c1O is ____.
48.4 µM

# TGI lookup, item N#Cc1cc2c(cc1Cl)Sc1nccn1S2(=O)=O
33 µM

Bench note: what TGI did CN1CCN(C(=O)OCc2nc3c(N4CCOCC4)nc(Cl)nc3n2C)CC1 show?
2.46 µM

Please look up its TGI: O=C(CC1=NCCN1)c1ccccc1
> 75 µM

Tell me the measured TGI of O=C1/C(=C/c2ccccc2)CNC/C1=C\c1ccccc1 , please.
4.57 µM

What does the data say about its TGI? Entry: CC(C)(C)OC(=O)N1CCc2c(sc3ncnc(N/N=C/c4cccc5ccccc45)c23)C1
9.79 µM

Could you share which TGI value was measured for NC1CNC(=O)c2c(Cl)sc(Cl)c21 (stereo not drawn) ?
> 100 µM

Further cases:
GET /values?readout=TGI&item= CC(=S)N=Cc1c(O)cc(C)oc1=O
> 100 µM

Returns the measured TGI for the input molecule. Input: COC(=O)[C@]12CC[C@@H](C)[C@H](C)[C@@H]1C1=CC[C@@H]3[C@@]4(C)C/C(=N\O)[C@H](O)[C@@]5(C)COC(=C45)C[C@@]3(C)[C@]1(C)CC2
21.9 µM

Given CC(=O)OCC(OC(C)=O)C1C[C@H]2O[C@@H]3[C@H](C[C@H]2O1)O[C@@]1(C[C@@H]3C)C[C@H](C)[C@@H]2O[C@]3(C[C@@H]2O1)C[C@H]1O[C@H]2[C@H](C)[C@H]4OC(=O)CC5CC[C@H]6OC7[C@H]8O[C@]9(CC[C@H]%10CC(O)(CO)[C@H](CC[C@H]%11C[C@@H](C)C(O)(CO)C(C[C@@H]4O[C@H]2C[C@H]1O3)O%11)O%10)CC8O[C@@H]7[C@@H](O9)[C@H]6O5 (stereo partly drawn) , state its recorded TGI.
> 1 µM

Looking for the measured TGI of CCC(=O)Oc1c2ccsc2c(OC(=O)CC)c2ccsc12 , can you help?
15 µM

State the recorded TGI for this entry: N#Cc1cc([N+](=O)[O-])ccc1NC(=O)C(=O)Nc1n[nH]c(N)n1
> 100 µM

Look up TGI: CN(C)CCn1c(=O)c2ccc(NCCCN(C)CCCNc3ccc4c(=O)n(CCN(C)C)c(=O)n5c6ccc([N+](=O)[O-])cc6c(=O)c3c45)c3c(=O)c4cc([N+](=O)[O-])ccc4n(c1=O)c23
0.398 µM

Bench note: what TGI did C/C(CC(=O)Nc1ccc(C)cc1C)=N/N=C(N)N show?
> 100 µM

Dear colleague, I am looking for the recorded TGI of the following molecule: COC1/C=C\C=C(/C)C(=O)NC2=CC(=O)C(=O)C(=C2O)CC(C)CC(OC)C(O)C(C)/C=C(\C)C1OC(N)=O (stereo not drawn)
> 100 µM
